Assay: Determination of compound Cmax and AUC after oral gavage
Type: in vivo
Settings: Sprague-Dawley, rat plasma, actual oral dose 8.9 mg/kg (Example 11) or 10 mg/kg (Example 2), LLOQ 5 ng/mL
Protocol: Sprague-Dawley rats were orally gavaged with test article at a nominal dose of 2.5 or 10 mg/kg and blood was collected at 0.5, 1, 2 and 4 h. Blood samples were processed to plasma using K2EDTA as an anticoaglulant. […] Supernatants were analyzed by LC-MS/MS and compound concentrations were determined by interpolated from a standard curve prepared in plasma. All compounds were orally dosed at the dosage shown, and pharmacokinetic parameters determined

{"chem smiles": "O=C(O)CCSCc1cccc(C(=O)Nc2ccc(N3CCCCC3)cc2C(=O)Nc2cnc(-c3ccccc3)nc2)c1", "Cmax / ng/mL": 645}

###

Test: Determination of compound Cmax and AUC after oral gavage
Assay type: in vivo
Settings: Sprague-Dawley, rat plasma, actual oral dose 8.9 mg/kg (Example 11) or 10 mg/kg (Example 2), samples 0.5-4 h

{"chem smiles": "O=C(O)CCSCc1cccc(C(=O)Nc2ccc(N3CCCCC3)cc2C(=O)Nc2cnc(-c3ccccc3)nc2)c1", "unit symbol": "ng·h/mL", "AUC": 822}

###

Biological target: rat NaP2b (SLC34A2) (Rattus norvegicus)
Construct: host or cells: HEK293
Sequence (Q9JJ09 whole entry): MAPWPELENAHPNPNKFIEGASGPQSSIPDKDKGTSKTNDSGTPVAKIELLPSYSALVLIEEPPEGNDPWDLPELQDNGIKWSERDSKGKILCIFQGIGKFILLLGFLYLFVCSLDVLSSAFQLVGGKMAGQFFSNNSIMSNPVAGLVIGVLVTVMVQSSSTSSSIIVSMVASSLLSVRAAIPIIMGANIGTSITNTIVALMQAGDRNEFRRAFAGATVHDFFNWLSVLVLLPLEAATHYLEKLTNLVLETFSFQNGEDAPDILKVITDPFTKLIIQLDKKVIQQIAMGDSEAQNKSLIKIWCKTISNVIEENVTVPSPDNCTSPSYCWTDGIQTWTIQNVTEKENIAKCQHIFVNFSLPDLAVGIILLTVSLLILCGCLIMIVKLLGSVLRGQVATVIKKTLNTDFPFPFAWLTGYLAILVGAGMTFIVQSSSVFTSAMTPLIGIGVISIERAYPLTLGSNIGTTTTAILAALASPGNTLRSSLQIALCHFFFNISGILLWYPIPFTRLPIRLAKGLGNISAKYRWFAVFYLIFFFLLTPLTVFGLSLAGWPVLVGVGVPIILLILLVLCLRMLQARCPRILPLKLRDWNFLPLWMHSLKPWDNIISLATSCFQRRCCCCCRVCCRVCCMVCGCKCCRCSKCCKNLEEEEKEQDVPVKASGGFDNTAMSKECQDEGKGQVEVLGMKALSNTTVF
Test: NaP2b-mediated Pi transport (33P uptake) in transfected HEK293 cells, rat transporter
Type: cell-based
Conditions: HEK293 cells transfected with rat NaP2b, 33P phosphate uptake, 100 uM KH2PO4; read-out: pIC50 range for rat Nap2b (converted)

{"chem smiles": "CCN(CC)CCN(C)Cc1cccc(C(=O)Nc2ccc(N3CCCCC3)cc2C(=O)Nc2ncc(-c3ccc(C)c(C)c3)cn2)c1", "IC50": "1 to 7.94 µM"}
{"chem smiles": "O=C(O)CCSCc1cccc(C(=O)Nc2ccc(N3CCCCC3)cc2C(=O)Nc2cnc(-c3cccc(C(F)(F)F)c3)nc2)c1", "IC50": "1 to 7.94 µM"}
{"chem smiles": "Cc1ccc(-c2cnc(NC(=O)c3cc(N4CCCCC4)ccc3NC(=O)c3cccc(CSCCC(=O)O)c3)cn2)cc1C", "IC50": "1 to 7.94 µM"}
{"chem smiles": "CN(CCN1CCOCC1)C(=O)c1cccc(C(=O)Nc2ccc(N3CCCCC3)cc2C(=O)Nc2cnc(-c3cccc(C(F)(F)F)c3)nc2)c1", "IC50": "< 1 µM"}
{"chem smiles": "O=C(NCCOCCO)c1cccc(C(=O)Nc2ccc(N3CCCCC3)cc2C(=O)Nc2cnc(-c3cccc(C(F)(F)F)c3)cn2)c1", "IC50": "10 to 31.6 µM"}
{"chem smiles": "CN(CCN1CCOCC1)C(=O)c1cccc(C(=O)Nc2ccc(N3CCCCC3)cc2C(=O)Nc2cnc(-c3ccccc3)nc2)c1", "IC50": "< 1 µM"}
{"chem smiles": "O=C(O)CCSCc1cccc(C(=O)Nc2ccc(N3CCCCC3)cc2C(=O)Nc2ncc(-c3cccc(C(F)(F)F)c3)cn2)c1", "IC50": "10 to 31.6 µM"}
{"chem smiles": "Cc1ccc(-c2cnc(NC(=O)c3cc(N4CCCCC4)ccc3NC(=O)c3cccc(C(=O)NCCOCCO)c3)nc2)cc1C", "IC50": "10 to 31.6 µM"}
{"chem smiles": "O=C(NCCOCCO)c1cccc(C(=O)Nc2ccc(N3CCCCC3)cc2C(=O)Nc2ncc(-c3cccc(C(F)(F)F)c3)cn2)c1", "IC50": "10 to 31.6 µM"}
{"chem smiles": "CCN(CC)CCN(C)Cc1cccc(C(=O)Nc2ccc(N3CCCCC3)cc2C(=O)Nc2ncc(-c3cccc(C(F)(F)F)c3)cn2)c1", "IC50": "10 to 31.6 µM"}
{"chem smiles": "CN(CCOCCOCCOCCC(=O)O)C(=O)c1cccc(C(=O)Nc2ccc(N3CCCCC3)cc2C(=O)Nc2cnc(-c3ccccc3)nc2)c1", "IC50": "1 to 7.94 µM"}
{"chem smiles": "Cc1ccc(-c2cnc(NC(=O)c3cc(N4CCCCC4)ccc3NC(=O)c3cccc(C(=O)NCCOCCO)c3)cn2)cc1C", "IC50": "10 to 31.6 µM"}
{"chem smiles": "O=C(O)c1cccc(SCc2cccc(C(=O)Nc3ccc(N4CCCCC4)cc3C(=O)Nc3cnc(-c4ccccc4)nc3)c2)c1", "IC50": "1 to 7.94 µM"}
{"chem smiles": "Cc1ccc(-c2cnc(NC(=O)c3cc(N4CCCCC4)ccc3NC(=O)c3cccc(CSCCC(=O)O)c3)nc2)cc1C", "IC50": "1 to 7.94 µM"}
{"chem smiles": "O=C(O)CCOCCOCCOCCNC(=O)Cc1cccc(SCc2cccc(C(=O)Nc3ccc(N4CCCCC4)cc3C(=O)Nc3ncc(-c4ccccc4)cn3)c2)c1", "IC50": "1 to 7.94 µM"}
{"chem smiles": "O=C(O)CCSCc1cccc(C(=O)Nc2ccc(N3CCCCC3)cc2C(=O)Nc2cnc(-c3ccccc3)nc2)c1", "IC50": "1 to 7.94 µM"}
